Values compiled from the supplement of paper PMC10127200.

Tested on: FB
Protocol text: Euclidean distance of Cell Painting phenotypic profile (signed KS, 77 features) to DMSO centroid (dimensionless distance); 5 or 10 uM (library dependent); higher = stronger phenotypic change vs DMSO (phenoactivity)
Assay context: 48 h
Overview of recorded Euclidean distance for various compounds
Response field accepts a number only; no unit should be typed.

Record excerpt, results attached:
>>> reported_measurement("CC(C)C[C@H](NC(=O)CNC(=O)c1cc(Cl)ccc1Cl)B(O)O")
3.83
>>> reported_measurement("CCCCOc1ccc(C(=O)Nc2ccc(F)cc2F)cc1")
1.28
>>> reported_measurement("CNC(=O)c1cnn(-c2nc(N)c3ncn([C@@H]4O[C@H](CO)[C@@H](O)[C@H]4O)c3n2)c1")
1.43
>>> reported_measurement("CCOC(=O)OC(C)OC1=C(C(=O)Nc2ccccn2)N(C)S(=O)(=O)c2ccccc21 (centres undefined)")
0.606

Reported Euclidean distance of O=C(O)c1cccnc1Nc1cccc(C(F)(F)F)c1 : 1.24

Entry under test: COc1ccc([C@H]2CNC(=O)C2)cc1OC1CCCC1 [S- (+)-Rolipram] . Its Euclidean distance was 0.792

====

Reported Euclidean distance values are given for each entry in this list.
Tested on: HEPG2
Protocol text: Euclidean distance of Cell Painting phenotypic profile (signed KS, 77 features) to DMSO centroid (dimensionless distance); 5 or 10 uM (library dependent); higher = stronger phenotypic change vs DMSO (phenoactivity)
Assay context: 48 h

// worked examples, Euclidean distance included
>>> reported_measurement("C[C@H]1COc2c(N3CCN(C)CC3)c(F)cc3c(=O)c(C(=O)O)cn1c23 [Levofloxacin hydrate]")
0.54
>>> reported_measurement("CN1C(C(=O)Nc2ccccn2)=C(O)c2ccccc2S1(=O)=O")
1.06

Euclidean distance recorded for this compound, CNC(=O)Nc1ccc(-c2nc(N3CC4CCC(C3)O4)c3cnn(C4CCC5(CC4)OCCO5)c3n2)cc1 , is 3.38

Given item COc1ccccc1OCC(O)COC(N)=O (stereo not given) , the value recorded as its Euclidean distance is 1.83

Entry CCCNC(=O)NS(=O)(=O)c1ccc(Cl)cc1 [Chlorpropamide] — recorded Euclidean distance = 0.632

====

Tested on: FB
Protocol text: Euclidean distance of Cell Painting phenotypic profile (signed KS, 77 features) to DMSO centroid (dimensionless distance); 5 or 10 uM (library dependent); higher = stronger phenotypic change vs DMSO (phenoactivity)
Assay context: 48 h
Counter-ions that a name gives are not always drawn.
Recorded Euclidean distance, one value per entry.
Lab note: record just the number, no unit beside it.

Example entries begin here.
>>> reported_measurement("CC(C)[C@@H](C)/C=C/[C@@H](C)[C@H]1CC[C@H]2C3=CC=C4C[C@@H](O)CC[C@]4(C)[C@H]3CC[C@]12C")
0.707
>>> reported_measurement("CNCCC=C1c2ccccc2CCc2ccccc21 [Nortriptyline hydrochloride]")
1.82
>>> reported_measurement("COc1cc2c(cc1Cc1cccc(Cl)c1F)c(=O)c(C(=O)O)cn2[C@H](CO)C(C)C")
0.872
>>> reported_measurement("OC(CN1CCN(c2cccc(Cl)c2)CC1)C(c1ccccc1)c1ccccc1 (configuration not stated)")
1.03

For CCN1CCN(C(=O)N[C@@H](C(=O)N[C@@H]2C(=O)N3[C@@H]2SC(C)(C)[C@@H]3C(=O)O)c2ccccc2)C(=O)C1=O [Piperacillin Sodium] the compound record lists Euclidean distance as 1.1

Looking up Cc1ncc([N+](=O)[O-])n1CC(C)O (configuration not stated) , I found its Euclidean distance recorded as 0.982

Input O=C(Oc1ccccc1C(=O)O)c1ccccc1O . Output Euclidean distance: 0.969

Quick note, Euclidean distance for Cc1onc(-c2ccccc2Cl)c1C(=O)N[C@@H]1C(=O)N2[C@@H]1SC(C)(C)[C@@H]2C(=O)O [Cloxacillin Sodium] landed at 0.941

Kindly note the recorded Euclidean distance for CC(C(=O)O)c1ccc(C(=O)c2ccccc2)s1 (configuration not stated) , which is 0.967

For record CN(C)C(=O)COC(=O)Cc1ccc(OC(=O)c2ccc(NC(=N)N)cc2)cc1 [Camostat Mesilate] the listed Euclidean distance is 0.645

// field: Euclidean distance; key: Nc1nc2[nH]cc(CCc3ccc(C(=O)N[C@@H](CCC(=O)O)C(=O)O)cc3)c2c(=O)[nH]1 [Pemetrexed Disodium Hydrate] ; value = 0.937

Short answer for O=C(O)Cc1ccccc1Nc1c(Cl)cccc1Cl : Euclidean distance was 0.969

Recorded result, CNC(=C[N+](=O)[O-])NCCSCc1ccc(CN(C)C)o1 , Euclidean distance: 0.903

The value of Euclidean distance measured for the compound C[C@]12CC[C@@H]3c4ccc(OC(=O)c5ccccc5)cc4CC[C@H]3[C@@H]1CC[C@@H]2O [Estradiol Benzoate] turned out to be 1.35

compound CNC[C@H](O)c1ccc(O)c(O)c1 [Epinephrine bitartrate] , Euclidean distance observed: 0.827

For reference, reported Euclidean distance for Cc1cccc(C)c1NC(=O)C1CCCCN1C (configuration not stated) [Mepivacaine HCl] stands at 1.28

Euclidean distance measured on CC(C)NCC(O)COc1cccc2ccccc12 (configuration not stated) [Propranolol HCl] = 0.645
